target: human TRPA1 (Homo sapiens, UniProt O75762, K186N/R3C/R58T); construct: expressed in transfected cells; pcDNA3 control cells; assay: Intracellular calcium (Fluo-4, FLIPR) activation of TRPA1 cells by GRAS compounds; type: cell-based; conditions: Table 1(e); 1 mM; relative to AITC 30 μM; read-out: A1 activation, % of agonist value;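 note: TRPA1-expressing cells, fluorescence read on a FLIPR Tetra (ex 488 nm, em 514 nm) every 2 s for 10 min after compound addition, baseline subtracted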
Sequence (O75762 whole entry R3C/R58T/K186N): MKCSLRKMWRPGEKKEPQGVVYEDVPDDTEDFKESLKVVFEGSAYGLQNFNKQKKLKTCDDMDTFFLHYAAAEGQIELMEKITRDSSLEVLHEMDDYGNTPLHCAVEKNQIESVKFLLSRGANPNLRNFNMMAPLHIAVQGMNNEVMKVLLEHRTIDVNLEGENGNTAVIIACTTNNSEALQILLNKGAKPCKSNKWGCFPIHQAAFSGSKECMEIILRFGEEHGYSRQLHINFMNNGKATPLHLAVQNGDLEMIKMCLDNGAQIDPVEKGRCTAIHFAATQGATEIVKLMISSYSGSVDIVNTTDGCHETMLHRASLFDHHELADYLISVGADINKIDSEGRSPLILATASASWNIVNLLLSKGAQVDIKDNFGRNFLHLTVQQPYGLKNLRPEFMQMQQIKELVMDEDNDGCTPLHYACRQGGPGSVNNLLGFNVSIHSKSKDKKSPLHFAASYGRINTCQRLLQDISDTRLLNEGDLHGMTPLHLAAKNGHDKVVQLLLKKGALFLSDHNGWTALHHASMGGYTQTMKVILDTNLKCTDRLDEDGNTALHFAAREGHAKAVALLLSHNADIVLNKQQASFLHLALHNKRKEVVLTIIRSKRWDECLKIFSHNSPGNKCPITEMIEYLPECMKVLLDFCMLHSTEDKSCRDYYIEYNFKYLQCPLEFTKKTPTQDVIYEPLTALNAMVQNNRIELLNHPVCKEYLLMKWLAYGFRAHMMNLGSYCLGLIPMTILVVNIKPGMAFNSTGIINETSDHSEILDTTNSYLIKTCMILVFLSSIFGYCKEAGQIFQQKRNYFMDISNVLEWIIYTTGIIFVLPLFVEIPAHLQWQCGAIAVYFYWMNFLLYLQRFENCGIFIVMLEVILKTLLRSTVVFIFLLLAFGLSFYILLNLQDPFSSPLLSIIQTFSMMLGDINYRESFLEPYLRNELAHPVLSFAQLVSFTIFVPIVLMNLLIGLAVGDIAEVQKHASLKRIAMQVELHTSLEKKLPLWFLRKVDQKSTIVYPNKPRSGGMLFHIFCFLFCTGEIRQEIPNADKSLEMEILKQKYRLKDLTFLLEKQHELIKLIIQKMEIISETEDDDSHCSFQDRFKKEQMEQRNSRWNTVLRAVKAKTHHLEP
MEASUREMENT LABEL: activation at 1000 µM

Check out these entries, answers already filled in.
[
  {
    "COMPOUND": "c1ccc(CCCC2CCCO2)cc1 (stereo not shown) [Furan, tetrahydro-2-(3-phenylpropyl)-]",
    "activation at 1000 µM": "26%"
  },
  {
    "COMPOUND": "CCCCCCCCCC=CC=O",
    "activation at 1000 µM": "65.5%"
  },
  {
    "COMPOUND": "C=CCc1ccc(OC(=O)CC(C)C)c(OC)c1 [Eugenyl isovalerate]",
    "activation at 1000 µM": "59.7%"
  },
  {
    "COMPOUND": "CCOc1ccc(C=O)cc1",
    "activation at 1000 µM": "62%"
  },
  {
    "COMPOUND": "COc1ccc2ncccc2c1",
    "activation at 1000 µM": "57.8%"
  }
]

Query: I'd like to know its activation at 1000 µM. The compound in question is CC(C)C(=O)OCC(C)c1ccccc1 (stereo not shown) [2-Phenylpropyl isobutyrate]
Result: 67.4%

Query: I'd like to know its activation at 1000 µM. The compound in question is CCCC(CCOC(C)=O)SC(C)=O (stereo not shown) [3-(Acetylmercapto)hexyl acetate]
Result: 22.3%
